All values here come from PubChem BioAssay AID602285.

// values below are reported AC50
target: UniProtKB Q61009; experiment: SR-BI mediated DiI-HDL lipid uptake blockers – ldlA[mSR-BI] CHO cells, fluorescence plate reader, dry powder, set 8, dose response (AID 602285); conditions: 3 h
Sequence (Q61009 whole entry, looked up): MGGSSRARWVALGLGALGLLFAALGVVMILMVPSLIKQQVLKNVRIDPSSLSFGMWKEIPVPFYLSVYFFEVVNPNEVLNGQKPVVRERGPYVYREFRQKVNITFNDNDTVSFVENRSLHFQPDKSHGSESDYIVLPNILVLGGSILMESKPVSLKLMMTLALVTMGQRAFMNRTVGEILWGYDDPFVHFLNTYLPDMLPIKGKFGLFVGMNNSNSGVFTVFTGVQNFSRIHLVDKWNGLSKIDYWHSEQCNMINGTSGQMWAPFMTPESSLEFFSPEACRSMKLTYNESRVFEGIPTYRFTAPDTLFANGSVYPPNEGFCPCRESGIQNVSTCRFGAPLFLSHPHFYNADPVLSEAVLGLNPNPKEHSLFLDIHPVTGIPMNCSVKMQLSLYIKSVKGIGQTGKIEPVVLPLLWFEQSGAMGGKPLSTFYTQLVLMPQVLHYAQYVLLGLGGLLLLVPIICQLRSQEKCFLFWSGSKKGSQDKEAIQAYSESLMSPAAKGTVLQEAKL

Some solved cases for reference:
{"columns": ["CHEM SMILES", "AC50"],
 "data": [
  ["C[C@@H]1CN([C@H](C)CO)C(=O)c2cc(NC(=O)Cc3cn(C)c4ccccc34)ccc2O[C@H]1CN(C)C(=O)Nc1cccc2ccccc12", "8.3 µM"],
  ["C[C@@H]1CN([C@H](C)CO)C(=O)c2cc(NC(=O)Cc3cn(C)c4ccccc34)ccc2O[C@H]1CN(C)C(=O)Nc1ccc2c(c1)OCO2", "4.6 µM"],
  ["C[C@@H]1CN([C@H](C)CO)C(=O)c2cc(N(C)C)ccc2O[C@H]1CN(C)S(=O)(=O)c1ccc(Cl)cc1", "0.628 µM"],
  ["C[C@@H]1CN([C@H](C)CO)C(=O)c2cc(NC(=O)Cc3cn(C)c4ccccc34)ccc2O[C@H]1CN(C)Cc1ccccc1", "1.55 µM"]
]}

Okay, now this compound:
Value (AC50, UniProtKB Q61009) for record Cc1noc(C)c1NC(=O)Nc1ccc2c(c1)C(=O)N([C@H](C)CO)C[C@@H](C)[C@H](CN(C)S(=O)(=O)c1ccc(Cl)cc1)O2 = 7.1 µM

====

molecular target: UniProtKB Q61009; test: SR-BI mediated DiI-HDL lipid uptake blockers – ldlA[mSR-BI] CHO cells, fluorescence plate reader, dry powder, set 8, dose response (AID 602285); conditions: 3 h
Active and inactive are the calls of the source.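 How the source made its calls: active means AC50 at or below twice the top valid dose for that sample, with falling signal; inconclusive means flat curve with inhibition of 30 to 70%, or poor fit; inactive means activity in the wrong direction, plus the rest.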
Hi! Could you answer with just one of these? y = active, n = inactive

Examples from the recorded data:
{"columns": ["COMPOUND", "ASSIGNED CLASS"],
 "data": [
  ["C[C@@H]1CN([C@@H](C)CO)C(=O)Cc2cc(NC(=O)CCCN(C)C)ccc2O[C@H]1CN(C)Cc1ccncc1", "n"],
  ["O=C(C[C@@H]1CC[C@@H](NC(=O)CC2CC2)[C@H](CO)O1)NCc1ccc(Cl)cc1", "n"],
  ["C[C@@H]1CN([C@@H](C)CO)C(=O)c2cc(NC(=O)Cc3cn(C)c4ccccc34)ccc2O[C@@H]1CN(C)S(=O)(=O)c1ccc(Cl)cc1", "y"]
]}

Challenge: Could you check what this test reported for C[C@H](CO)N1C[C@H](C)[C@H](CN(C)C)Oc2c(NS(C)(=O)=O)cccc2C1=O ?
Response given: n

Challenge: Could you check what this test reported for C[C@@H]1CN([C@H](C)CO)C(=O)c2cc(NC(=O)Cc3cn(C)c4ccccc34)ccc2O[C@@H]1CN(C)S(=O)(=O)c1ccc(Cl)cc1 ?
Response given: y

Challenge: Could you check what this test reported for C[C@@H]1CN([C@@H](C)CO)C(=O)c2cc(NC(=O)NC3CCCCC3)ccc2O[C@H]1CN(C)Cc1ccncc1 ?
Response given: y

Challenge: Could you check what this test reported for C[C@@H]1CN([C@H](C)CO)C(=O)c2cc(NC(=O)CCC(F)(F)F)ccc2O[C@H]1CN(C)S(=O)(=O)c1ccc(Cl)cc1 ?
Response given: y

Challenge: Could you check what this test reported for COc1ccc(CN(C)C[C@@H]2Oc3ccc(NC(=O)CCCN(C)C)cc3C(=O)N([C@H](C)CO)C[C@H]2C)cc1 ?
Response given: n

Challenge: Could you check what this test reported for C[C@@H]1CN([C@H](C)CO)C(=O)c2cc(NC(=O)Cc3cn(C)c4ccccc34)ccc2O[C@H]1CN(C)S(=O)(=O)c1cn(C)cn1 ?
Response given: y

Challenge: Could you check what this test reported for C[C@@H]1CN([C@H](C)CO)C(=O)c2cc(NC(=O)Cc3cn(C)c4ccccc34)ccc2O[C@H]1CN(C)S(=O)(=O)c1ccc(Cl)cc1 ?
Response given: y

Challenge: Could you check what this test reported for Cc1noc(C)c1S(=O)(=O)Nc1ccc2c(c1)C(=O)N([C@H](C)CO)C[C@@H](C)[C@H](CN(C)S(=O)(=O)c1ccc(Cl)cc1)O2 ?
Response given: y
